Exercise: state measured IC50 for each of the compounds provided.
assay: Inhibition of alpha-glucosidase (unknown origin) using p-nitrophenyl-alpha-D-glucopyranoside as substrate preincubated for 15 mins followed by substrate addition and measured after 30 mins by spectrophotometric analysis; set-up: species or system Homo sapiens
Answers are plain numbers, in µM.

1. COc1ccc(-c2cn(C[C@@H](C)Oc3ccc(-c4ccc(C(F)(F)F)cc4)cc3OC)nn2)cc1 14.2

API: the following record is the query input.
Q: I have this compound here, "Cc1ccc2c(c1)/C(=N/Nc1nc(-c3ccc(O)cc3)cs1)C(=O)N2Cc1cccc(F)c1" , and I need its recorded IC50.
Ans: 5.36

----------
assay: Inhibition of rat intestinal alpha-glucosidase
Exercise: state measured pIC50 for each of the compounds provided.
One number for each entry, as −log10 of the molar value.

1) N[C@H]1[C@H](O)[C@@H](O)[C@H](O)[C@@H](CO)[C@@H]1CCO 5.24

API: the following record is the query input.
Q: I have this compound here, "N[C@H]1C=C(CO)[C@@H](O)[C@H](O)[C@H]1O" , and I need its recorded pIC50.
Ans: 4.04
